FYI, the data here is from ChEMBL document CHEMBL4477237.

target: Proteasome Macropain subunit (Homo sapiens); experiment: Inhibition of catalytic activity of constitutive proteasome 20s subunit beta2 in human Raji cells incubated for 1 hr by BODIPY(FL)-LU-112 probe based competitive activity based protein profiling assay; assay type: cell-based
measurement.type: pIC50(app)

{"compound": "COc1ccc(C[C@H](NC(=O)[C@H](Cc2ccccc2)N=[N+]=[N-])C(=O)N[C@@H](Cc2ccccc2)C(=O)N[C@@H](CC(C)C)C(=O)[C@@]2(C)CO2)cc1", "assay.target": "Proteasome Macropain subunit (Homo sapiens)", "pIC50(app)": 6.95}
{"compound": "COC1CCC(C[C@H](NC(=O)[C@H](Cc2ccccc2)N=[N+]=[N-])C(=O)N[C@@H](Cc2ccccc2)C(=O)N[C@@H](CC(C)C)C(=O)[C@@]2(C)CO2)CC1 (stereo not given in full)", "assay.target": "Proteasome Macropain subunit (Homo sapiens)", "pIC50(app)": 7.18}
{"compound": "CC(C)C[C@H](NC(=O)[C@H](Cc1ccccc1)NC(=O)[C@H](CCc1ccccc1)NC(=O)[C@H](Cc1ccccc1)N=[N+]=[N-])C(=O)[C@@]1(C)CO1", "assay.target": "Proteasome Macropain subunit (Homo sapiens)", "pIC50(app)": 7.22}
{"compound": "CC(C)C[C@H](NC(=O)[C@H](Cc1ccccc1)NC(=O)[C@H](Cc1ccccc1)NC(=O)[C@H](Cc1ccccc1)N=[N+]=[N-])C(=O)[C@@]1(C)CO1", "assay.target": "Proteasome Macropain subunit (Homo sapiens)", "pIC50(app)": 7.18}
{"compound": "CC(C)C[C@H](NC(=O)[C@H](Cc1ccccc1)NC(=O)[C@H](CC1CCC(C)CC1)NC(=O)[C@H](Cc1ccccc1)N=[N+]=[N-])C(=O)[C@@]1(C)CO1 (stereo not given in full)", "assay.target": "Proteasome Macropain subunit (Homo sapiens)", "pIC50(app)": 7.34}
